- Test system: B-16 melanoma cells
- measurement_notes: Cell-survival rate (cytotoxicity) in B-16 melanoma cell culture
- Assay type: cell-based
- stated_conditions: concentration 8 ppm; B-16 melanoma cells
In this section we review reported Cell-Survival Rate values for a set of compounds.
quantity_measured: Cell-Survival Rate (%)

INSERT INTO assay_data (compound, endpoint_unit, endpoint_result) VALUES
  ('CC1(C)CC[C@]2(C(=O)O)CC[C@]3(C)C(=CC[C@@H]4[C@@]5(C)C[C@@H](O)[C@H](O)C(C)(C)[C@@H]5CC[C@]43C)[C@@H]2C1 [Purified maslinic acid 2, maslinic acid]', '%', 88),
  ('CC1(C)CC[C@]2(C(=O)O)CC[C@]3(C)C(=CC[C@@H]4[C@@]5(C)C[C@@H](O)[C@H](O)C(C)(C)[C@@H]5CC[C@]43C)[C@@H]2C1 [Purified maslinic acid 1, maslinic acid]', '%', 79),
  ('C=C(C)[C@@H]1CC[C@]2(CO)CC[C@]3(C)[C@H](CC[C@@H]4[C@@]5(C)CC[C@H](O)C(C)(C)[C@@H]5CC[C@]43C)[C@@H]12 [Betulin, betulin]', '%', 100),
  ('CC[Si](CC)(CC)OC(=O)[C@]12CCC(C)(C)C[C@H]1C1=CC[C@@H]3[C@@]4(C)C[C@@H](O[Si](CC)(CC)CC)[C@H](O[Si](CC)(CC)CC)C(C)(C)[C@@H]4CC[C@@]3(C)[C@]1(C)CC2 [Compound of Synthesis 3]', '%', 100);

* * *

- System: B-16 melanoma cells
- measurement_notes: Cell-survival rate (cytotoxicity) in B-16 melanoma cell culture
- Type: cell-based
- stated_conditions: mouse, 200 ppm
hey, just use True if measured Cell-Survival Rate is less than 60%, otherwise False

INSERT INTO measurements (compound, class_assignment) VALUES
  ('CC1(C)CC[C@]2(CO)CC[C@]3(C)C(=CC[C@@H]4[C@@]5(C)CC[C@H](O)C(C)(C)[C@@H]5CC[C@]43C)[C@@H]2C1 [Erythrodiol, erythrodiol]', 'False'),
  ('C=C(C)[C@@H]1CC[C@]2(C(=O)O)CC[C@]3(C)[C@H](CC[C@@H]4[C@@]5(C)CC[C@H](O)C(C)(C)[C@@H]5CC[C@]43C)[C@@H]12 [Betulinic acid, betulinic acid]', 'True'),
  ('OC[C@H]1O[C@@H](Oc2ccc(O)cc2)[C@H](O)[C@@H](O)[C@@H]1O [Arbutin, reference compound]', 'True'),
  ('O=c1cc(CO)occ1O [Kojic Acid, reference compound]', 'False');

* * *

- Test system: B-16 melanoma cells
- measurement_notes: Test for evaluating melanogenesis-inhibitory function (cell-whitening degree) in cell culture systems using B-16 melanoma cells
- Assay type: cell-based
- Set-up: key: ++: The whitening degree is higher than that observed when adding 450 μg/mL of vitamin C-magnesium phosphate.; +: The whitening degree is almost identical to that observed when adding 450 μ g/mL of vitamin C-magnesium phosphate.; ±: The whitening degree is not higher than that observed when adding 450 μg/mL of vitamin C-magnesium phosphate, but higher than that of the control.; −: The whitening degree is almost identical to that observed for the control
- stated_conditions: concentration 8 ppm; B-16 melanoma cells
quantity_measured: Whitening degree

INSERT INTO assay_data (molecule, endpoint_result) VALUES
  ('CC1(C)CC[C@]2(C(=O)O)CC[C@]3(C)C(=CC[C@@H]4[C@@]5(C)C[C@@H](O)[C@H](O)C(C)(C)[C@@H]5CC[C@]43C)[C@@H]2C1 [Purified maslinic acid 2, maslinic acid]', '++'),
  ('CC(=O)O[C@@H]1C[C@]2(C)[C@H]3CC=C4[C@@H]5CC(C)(C)CC[C@]5(C(=O)O)CC[C@@]4(C)[C@]3(C)CC[C@H]2C(C)(C)[C@H]1OC(C)=O [Compound of Synthesis 2, 2,3-O-Di-Acetyl-Maslinic Acid]', '++'),
  ('C=C(C)[C@@H]1CC[C@]2(C(=O)OCC)CC[C@]3(C)[C@H](CC[C@@H]4[C@@]5(C)CC[C@H](O)C(C)(C)[C@@H]5CC[C@]43C)[C@@H]12 [Compound of Synthesis 7, Ethyl Ester of Betulinic Acid]', '±'),
  ('C[C@H]1[C@H](C)CC[C@]2(CO)CC[C@]3(C)C(=CC[C@@H]4[C@@]5(C)CC[C@H](O)C(C)(C)[C@@H]5CC[C@]43C)[C@H]12 [Uvaol, uvaol]', '±');

Data origin: patent US20030133958A1
